Please provide measured pIC50 for the entries that follow.
EXPERIMENTAL TARGET: Glutamate NMDA receptor; Grin1/Grin2c (Rattus norvegicus, UniProt P35439+Q00961)
Sequence (Q00961 whole entry, other chains not shown): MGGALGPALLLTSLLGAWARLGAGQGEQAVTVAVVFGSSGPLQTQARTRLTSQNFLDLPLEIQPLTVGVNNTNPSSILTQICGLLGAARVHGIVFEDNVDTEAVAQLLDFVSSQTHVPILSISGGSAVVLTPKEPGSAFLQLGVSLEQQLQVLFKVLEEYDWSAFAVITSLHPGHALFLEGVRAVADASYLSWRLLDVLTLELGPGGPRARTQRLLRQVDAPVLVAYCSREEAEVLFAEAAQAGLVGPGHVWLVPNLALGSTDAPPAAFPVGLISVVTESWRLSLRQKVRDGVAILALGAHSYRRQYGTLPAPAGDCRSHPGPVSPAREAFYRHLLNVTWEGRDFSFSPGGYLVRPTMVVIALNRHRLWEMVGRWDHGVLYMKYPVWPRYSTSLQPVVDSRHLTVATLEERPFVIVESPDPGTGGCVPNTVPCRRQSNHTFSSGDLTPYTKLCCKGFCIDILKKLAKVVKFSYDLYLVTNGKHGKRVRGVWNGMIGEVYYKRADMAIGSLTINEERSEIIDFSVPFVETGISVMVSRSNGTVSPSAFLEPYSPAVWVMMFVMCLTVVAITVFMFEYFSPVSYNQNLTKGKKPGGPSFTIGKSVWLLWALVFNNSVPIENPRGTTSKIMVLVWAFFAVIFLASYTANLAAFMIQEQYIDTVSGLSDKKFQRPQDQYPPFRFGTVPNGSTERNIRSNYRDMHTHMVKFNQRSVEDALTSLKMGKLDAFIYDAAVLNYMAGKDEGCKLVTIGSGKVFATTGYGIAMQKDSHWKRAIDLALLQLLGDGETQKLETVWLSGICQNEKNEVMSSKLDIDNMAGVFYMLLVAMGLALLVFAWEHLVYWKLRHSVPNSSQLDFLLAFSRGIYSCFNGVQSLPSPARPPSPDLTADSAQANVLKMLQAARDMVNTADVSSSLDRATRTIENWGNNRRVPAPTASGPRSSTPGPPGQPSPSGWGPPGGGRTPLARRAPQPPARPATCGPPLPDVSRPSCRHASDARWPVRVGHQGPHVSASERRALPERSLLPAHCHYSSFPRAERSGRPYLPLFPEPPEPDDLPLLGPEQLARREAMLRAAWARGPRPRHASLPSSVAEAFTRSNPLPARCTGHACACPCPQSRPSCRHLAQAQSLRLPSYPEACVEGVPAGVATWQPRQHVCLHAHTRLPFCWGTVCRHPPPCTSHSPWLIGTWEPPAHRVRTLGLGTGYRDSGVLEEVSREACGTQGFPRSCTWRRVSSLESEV
MEASUREMENT PROTOCOL: Antagonist activity at rat recombinant NR1-NR2C receptor expressed in Xenopus oocytes at holding potential of -40mV by two-electrode voltage-clamp electrophysiology
Numbers only, as −log10 of the molar value.

COc1ccc(-n2c(/C=C/c3ccc([N+](=O)[O-])cc3)nc3ccccc3c2=O)cc1    3.74
N#Cc1ccc(/C=C/c2nc3ccccc3c(=O)n2-c2ccc(C(=O)O)cc2)cc1    4.55
O=C(O)c1ccc(-n2c(/C=C/c3cccc([N+](=O)[O-])c3)nc3ccc(I)cc3c2=O)cc1    6.00
COc1cccc(-n2c(/C=C/c3cccc([N+](=O)[O-])c3)nc3ccccc3c2=O)c1    3.69

Please turn your attention to the following entry.
Problem: # return recorded pIC50 for input O=C(O)c1ccc(-n2c(/C=C/c3ccc(N4CCOCC4)cc3)nc3ccccc3c2=O)cc1
Result: 3.55

Data provenance: ChEMBL document CHEMBL1212913
